Reference source: paper PMC7226989

- assay-summary: Permeability assay across hiPSC-derived BMECs clone 1 on Transwell, co-culture with human astrocytes
- stated-conditions: human
recorded-endpoint: Papp

Exercise: For NCC1(CC(=O)O)CCCCC1 [gabapentin] , what is its reported Papp?
Key: 11.9 ×10⁻⁶ cm/s

* * *

Consider the following compounds and their measured efflux ratio readings.
- assay-summary: in vitro
- stated-conditions: human

Exercise: For CC[C@]1(O)C[C@@H]2CN(CCc3c([nH]c4ccccc34)[C@@](C(=O)OC)(c3cc4c(cc3OC)N(C)[C@H]3[C@@](O)(C(=O)OC)[C@H](OC(C)=O)[C@]5(CC)C=CCN6CC[C@]43[C@@H]65)C2)C1 [vinblastine] , what is its reported efflux ratio?
Key: 1.5

Now for a further compound.
Exercise: For CC(=O)O[C@H]1C(=O)[C@@]2(C)[C@H]([C@H](OC(=O)c3ccccc3)[C@]3(O)C[C@H](OC(=O)[C@H](O)[C@@H](NC(=O)c4ccccc4)c4ccccc4)C(C)=C1C3(C)C)[C@]1(OC(C)=O)CO[C@@H]1C[C@@H]2O [taxol] , what is its reported efflux ratio?
Key: 2.4
